Biological target: T1, Peptide B (human PAR-2), C-terminal biotinylated (Human, not fully specified)
T1 construct: also called Peptide B C-Term
T1 peptide: SLIGKVDGTSHVTGGGGGS-biotin
Assay: SPR, peptide immobilized
Experimental: In another series of experiments, equilibrium dissociation constants (KD values) for purified antibody binding to selected biotinylated and unbiotinylated forms of PAR-2 peptides were determined by surface kinetics using a real-time surface plasmon resonance biosensor assay. Neutravidin (Pierce, Rockford, Ill.) was covalently coupled to the surface of a Biacore™ C1 chip or CM5 chip using amine coupling chemistry. […]
Where no end group is shown, it is not given here.

{"columns": ["Binder", "Result Unit", "T1/2"],
 "data": [
  ["H4H581P (antibody, human IgG4, V domains shown, also called mAb H4H581P; H1H581P variable regions) VH: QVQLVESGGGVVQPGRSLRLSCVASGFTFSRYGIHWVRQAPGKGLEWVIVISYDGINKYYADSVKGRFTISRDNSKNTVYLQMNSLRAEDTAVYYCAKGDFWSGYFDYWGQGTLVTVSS VL: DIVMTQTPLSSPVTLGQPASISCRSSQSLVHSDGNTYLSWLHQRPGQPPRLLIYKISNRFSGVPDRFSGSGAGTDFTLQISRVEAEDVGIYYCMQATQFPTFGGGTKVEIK", "min", 49]
]}
